# procedure summary: GST conjugation activity with chlorimuron ethyl (HPLC)
# Format: biochemical
# test context: 0.4 mM electrophilic substrate, 4 mM glutathione, 0.1 M MOPS pH 7.0, corrected for uncatalyzed reaction
measured parameter: Activity of soybean GST enzyme, Chlorimuron Ethyl
Provide a numeric answer, followed by its unit.

{"molecule": "ssm.pk0026.g11: soybean type II GST encoded by cDNA insert in clone ssm.pk0026.g11 (protein) MASASVGKELTLYSYWRSSCSHRVRIALNLKGLKYEYKPVNLLKGEQSRPEFLQLNPVGCVPVLVDDHVVLYDSFAIIMYLEDKYPHNPLLPHDIYKRAINFQAASVVSSTIQPLHNLSLLNYIGEKVGPDEKLPWAQSIIRRGFKALEKLLKDHTGRYATGDEVFLADIFLAPQLHAAFKRFNIHMNEFPILARLHETYNEIPAFQEALPENQPDAVH", "experimental result": "0.0 nmol/min/mg"}

Challenge: Request the reported Activity of soybean GST enzyme, Chlorimuron Ethyl associated with ssl.pk0005.e6: soybean type III GST encoded by cDNA insert in clone ss1.pk0005.e6 (protein) MTDEVVLLDFWPSPFGMRVRIALAEKGIEYEYKEEDLRNKSPLLLQMNPVHKKIPVLIHNGKPISESLIAVQYIEEVWNDRNPLLPSDPYQRAQARFWADYVDIKIHDLGKKIWTSKGEEKEAAKKEFIEALKLLEEQLGDKTYFGGDNIGFVDIALVPFYTWFKVYETFGSLNIENECPRFVAWAKRCLQKESVAKSLPDQHKVYEFVVEIRKKLVIE
Response given: 1.4 nmol/min/mg

Measured values drawn from patent US6168954A for this set.
